B1: mRNA-splicing (parent)
chain: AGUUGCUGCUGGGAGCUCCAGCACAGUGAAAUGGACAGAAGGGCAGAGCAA

- Variants of: B1
- test-description: exon inclusion enrichment index; higher = more inclusion; WT1 exon 5 minigene, HEK293
Collected exon inclusion enrichment index values appear next to each entry.
// return just the number, without any unit appended

Q: State its exon inclusion enrichment index for this variant: G5U C6G U7A G8U C9U
Result: 0.198

Q: State its exon inclusion enrichment index for this variant: G5A C6U U7A G8U U10A
Result: 0.0329

Continuing:
Q: State its exon inclusion enrichment index for this variant: G5A C6U U7A G8U C9A A25C G26C
Result: 0.0828

Q: State its exon inclusion enrichment index for this variant: C6A U7A C9A U10A A29C A30U
Result: 0.34

Q: State its exon inclusion enrichment index for this variant: G5C C6U G8C C9U U10C U17G C18G
Result: 1.96

Q: State its exon inclusion enrichment index for this variant: G5A C6G U7G C9A C24A
Result: 0.00195

Q: State its exon inclusion enrichment index for this variant: G5C C6G U7C U10C C44G
Result: 4.42
